Assay: Systemic (plasma) levels of the carboxylic acid in patients
Type: in vivo, human
Conditions: human, plasma, other: ophthalmic solution, bilateral instillation, 0.25 % ophthalmic solution, plasma; 0.25% ophthalmic solution bilaterally; Day 7
Endpoint: Cmax (ng/mL)
Give the number; ng/mL is assumed, so skip it.

Lookup: I would be grateful if you could share the reported Cmax for CN1CCC(=C2c3ccccc3CCn3c(C(=O)O)cnc32)CC1 .
Found: 2.71

---

Assay: Systemic (plasma) levels of the carboxylic acid in patients
Format: in vivo, human
Conditions: human, plasma, other: ophthalmic solution, bilateral instillation, 0.25 % ophthalmic solution, plasma; 0.25% ophthalmic solution bilaterally; Day 1
Endpoint: Cmax (ng/mL)
Give the number; ng/mL is assumed, so skip it.

Lookup: I would be grateful if you could share the reported Cmax for CN1CCC(=C2c3ccccc3CCn3c(C(=O)O)cnc32)CC1 .
Found: 3.23

---

Biological target: human histamine H4 receptor (Homo sapiens, UniProt Q9H3N8)
Construct: express a reporter gene construct and the human H4 receptor full-coding region
Sequence (Q9H3N8 whole entry): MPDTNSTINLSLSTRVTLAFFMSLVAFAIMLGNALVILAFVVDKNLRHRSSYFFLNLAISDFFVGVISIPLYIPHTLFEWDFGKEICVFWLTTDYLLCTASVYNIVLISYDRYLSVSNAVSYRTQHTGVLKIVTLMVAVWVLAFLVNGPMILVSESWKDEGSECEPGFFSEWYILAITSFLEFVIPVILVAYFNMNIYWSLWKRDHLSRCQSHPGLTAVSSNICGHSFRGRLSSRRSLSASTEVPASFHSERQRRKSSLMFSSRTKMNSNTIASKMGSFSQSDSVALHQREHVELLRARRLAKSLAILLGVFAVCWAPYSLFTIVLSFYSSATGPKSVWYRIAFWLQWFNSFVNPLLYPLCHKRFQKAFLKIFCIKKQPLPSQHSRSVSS
Assay: [3H]histamine competition binding to membranes of SK-N-MC cells transfected with human H4 receptor
Settings: average of two runs; 10 nM [3H]histamine; Cheng and Prusoff
Endpoint: pKi
Quick note: pKi values are minus log10 of concentrations in mol/L.

Lookup: Field: pKi (human histamine H4 receptor (Homo sapiens, UniProt Q9H3N8)). Entry: CN1CCC(=C2c3ccccc3CCn3c(C=O)cnc32)CC1 [Alcaftadine]
Found: 5.54
